target_of_assay: Ribosomal protein S6 kinase alpha-2 (Homo sapiens)
Sequence (Q15349 whole entry): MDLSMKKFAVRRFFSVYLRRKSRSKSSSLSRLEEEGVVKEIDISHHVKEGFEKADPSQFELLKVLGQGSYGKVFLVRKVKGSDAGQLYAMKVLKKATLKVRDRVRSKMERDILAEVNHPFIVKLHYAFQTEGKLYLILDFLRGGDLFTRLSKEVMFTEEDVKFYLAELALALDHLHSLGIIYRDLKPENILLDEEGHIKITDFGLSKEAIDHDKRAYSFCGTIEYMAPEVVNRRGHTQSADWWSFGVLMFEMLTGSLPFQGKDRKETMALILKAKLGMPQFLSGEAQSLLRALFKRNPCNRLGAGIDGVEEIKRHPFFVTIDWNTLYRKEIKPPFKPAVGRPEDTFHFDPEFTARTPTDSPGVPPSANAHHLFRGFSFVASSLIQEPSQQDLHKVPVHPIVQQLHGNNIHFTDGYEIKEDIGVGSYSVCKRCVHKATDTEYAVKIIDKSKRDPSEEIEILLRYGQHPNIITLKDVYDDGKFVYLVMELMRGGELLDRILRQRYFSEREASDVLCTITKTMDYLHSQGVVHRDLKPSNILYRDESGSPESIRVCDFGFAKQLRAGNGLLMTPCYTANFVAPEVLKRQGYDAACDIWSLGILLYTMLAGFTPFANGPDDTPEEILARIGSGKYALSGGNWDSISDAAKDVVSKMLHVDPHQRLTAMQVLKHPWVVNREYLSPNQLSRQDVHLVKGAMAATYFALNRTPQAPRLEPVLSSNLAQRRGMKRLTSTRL
assay_endpoint: pIC50
Please treat pIC50 as minus the base-10 logarithm of the molar concentration.

molecule	pIC50
CN1C(=O)[C@@H](N2CCc3cn(Cc4ccccc4)nc3C2=O)COc2ccccc21	6.00

Continue with the molecule presented below.
Notebook: pull reported pIC50 for Ribosomal protein S6 kinase alpha-2 (Homo sapiens), entry CN1C(=O)[C@@H](N2CCc3cn(CC4CCS(=O)(=O)CC4)nc3C2=O)COc2ccccc21 [TP-030n]
6.00

---

Quick reference: pIC50 of the listed items.
target_of_assay: Tyrosine-protein kinase ITK/TSK (Homo sapiens, UniProt Q08881)
Sequence (Q08881 whole entry): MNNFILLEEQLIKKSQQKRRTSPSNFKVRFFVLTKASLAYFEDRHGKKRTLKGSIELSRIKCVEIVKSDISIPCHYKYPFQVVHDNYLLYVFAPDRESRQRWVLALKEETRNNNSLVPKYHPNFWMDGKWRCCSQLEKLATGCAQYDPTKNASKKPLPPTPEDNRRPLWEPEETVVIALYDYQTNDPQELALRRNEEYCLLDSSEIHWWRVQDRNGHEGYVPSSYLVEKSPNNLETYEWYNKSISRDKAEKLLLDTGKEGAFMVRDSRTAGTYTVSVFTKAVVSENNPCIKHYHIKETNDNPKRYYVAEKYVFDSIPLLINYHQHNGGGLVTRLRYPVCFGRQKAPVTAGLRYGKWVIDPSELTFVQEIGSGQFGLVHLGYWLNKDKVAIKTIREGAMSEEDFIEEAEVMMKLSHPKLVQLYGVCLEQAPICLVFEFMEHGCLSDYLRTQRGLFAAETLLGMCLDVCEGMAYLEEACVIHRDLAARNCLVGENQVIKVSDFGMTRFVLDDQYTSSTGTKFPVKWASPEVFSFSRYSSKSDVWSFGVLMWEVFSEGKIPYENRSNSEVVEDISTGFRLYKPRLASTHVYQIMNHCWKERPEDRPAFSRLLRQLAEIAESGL
Please treat pIC50 as minus the base-10 logarithm of the molar concentration.

compound	pIC50
CN1C(=O)[C@@H](N2CCc3cn(Cc4ccccc4)nc3C2=O)COc2ccccc21 [TP-030-1]	6.00

Continue with the compound presented below.
Entry under review: CN1C(=O)[C@@H](N2CCc3cn(CC4CCS(=O)(=O)CC4)nc3C2=O)COc2ccccc21 [TP-030n] . Reported pIC50?
6.00

---

target_of_assay: Mitogen-activated protein kinase 14 (Homo sapiens)
Sequence (Q16539 whole entry): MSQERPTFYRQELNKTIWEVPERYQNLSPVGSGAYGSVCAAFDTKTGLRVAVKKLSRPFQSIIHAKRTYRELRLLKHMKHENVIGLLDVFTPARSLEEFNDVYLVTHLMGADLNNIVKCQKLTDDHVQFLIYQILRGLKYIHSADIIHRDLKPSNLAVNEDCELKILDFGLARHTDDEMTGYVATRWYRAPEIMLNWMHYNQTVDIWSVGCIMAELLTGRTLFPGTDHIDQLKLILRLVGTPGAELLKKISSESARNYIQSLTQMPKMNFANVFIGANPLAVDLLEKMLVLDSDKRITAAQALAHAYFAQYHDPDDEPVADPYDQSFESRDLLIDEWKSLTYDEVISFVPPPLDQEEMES
assay_method_text: p38alpha(MP14LGI1) Takeda global kinase panel
assay_endpoint: pIC50
Please treat pIC50 as minus the base-10 logarithm of the molar concentration.

compound	assay_endpoint	numeric_readout
CN1C(=O)[C@@H](N2CCc3cn(Cc4ccccc4)nc3C2=O)COc2ccccc21	pIC50	6.00

Continue with the compound presented below.
Entry under review: CN1C(=O)[C@@H](N2CCc3cn(CC4CCS(=O)(=O)CC4)nc3C2=O)COc2ccccc21 [TP-030n] . Reported pIC50?
6.00

---

target_of_assay: Tyrosine-protein kinase Yes (Homo sapiens, UniProt P07947)
Sequence (P07947 whole entry): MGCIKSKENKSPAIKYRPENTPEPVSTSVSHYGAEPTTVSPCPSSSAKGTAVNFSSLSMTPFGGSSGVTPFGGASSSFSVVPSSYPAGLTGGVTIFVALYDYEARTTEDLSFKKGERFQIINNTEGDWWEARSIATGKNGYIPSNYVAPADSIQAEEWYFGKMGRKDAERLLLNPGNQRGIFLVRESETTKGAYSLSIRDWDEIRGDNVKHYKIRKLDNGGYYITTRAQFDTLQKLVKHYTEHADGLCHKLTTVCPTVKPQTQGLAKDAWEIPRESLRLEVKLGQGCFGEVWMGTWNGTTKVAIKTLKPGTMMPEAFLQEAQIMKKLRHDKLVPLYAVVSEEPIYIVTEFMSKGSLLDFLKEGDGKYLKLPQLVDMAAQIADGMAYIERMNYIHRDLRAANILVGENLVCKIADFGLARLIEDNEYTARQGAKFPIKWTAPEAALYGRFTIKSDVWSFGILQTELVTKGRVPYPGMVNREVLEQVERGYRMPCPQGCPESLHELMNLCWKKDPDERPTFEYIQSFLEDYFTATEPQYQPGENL
assay_endpoint: pIC50
Please treat pIC50 as minus the base-10 logarithm of the molar concentration.

Notebook: pull reported pIC50 for Tyrosine-protein kinase Yes (Homo sapiens, UniProt P07947), entry CN1C(=O)[C@@H](N2CCc3cn(CC4CCS(=O)(=O)CC4)nc3C2=O)COc2ccccc21 [TP-030n]
6.00

---

So I've got IC50 readings for TRAF2 and NCK-interacting protein kinase (Homo sapiens), take a look.
Provide only the numeric value, understood in µM.

Entry under review: "CN1C(=O)[C@@H](N2CCc3cn(Cc4ccccc4)nc3C2=O)COc2ccccc21" . Reported IC50?
1

Entry under review: CN1C(=O)[C@@H](N2CCc3cn(CC4CCS(=O)(=O)CC4)nc3C2=O)COc2ccccc21 [TP-030n] . Reported IC50?
1

---

target_of_assay: Inhibitor of nuclear factor kappa-B kinase subunit beta (Homo sapiens, UniProt O14920)
Sequence (O14920 whole entry): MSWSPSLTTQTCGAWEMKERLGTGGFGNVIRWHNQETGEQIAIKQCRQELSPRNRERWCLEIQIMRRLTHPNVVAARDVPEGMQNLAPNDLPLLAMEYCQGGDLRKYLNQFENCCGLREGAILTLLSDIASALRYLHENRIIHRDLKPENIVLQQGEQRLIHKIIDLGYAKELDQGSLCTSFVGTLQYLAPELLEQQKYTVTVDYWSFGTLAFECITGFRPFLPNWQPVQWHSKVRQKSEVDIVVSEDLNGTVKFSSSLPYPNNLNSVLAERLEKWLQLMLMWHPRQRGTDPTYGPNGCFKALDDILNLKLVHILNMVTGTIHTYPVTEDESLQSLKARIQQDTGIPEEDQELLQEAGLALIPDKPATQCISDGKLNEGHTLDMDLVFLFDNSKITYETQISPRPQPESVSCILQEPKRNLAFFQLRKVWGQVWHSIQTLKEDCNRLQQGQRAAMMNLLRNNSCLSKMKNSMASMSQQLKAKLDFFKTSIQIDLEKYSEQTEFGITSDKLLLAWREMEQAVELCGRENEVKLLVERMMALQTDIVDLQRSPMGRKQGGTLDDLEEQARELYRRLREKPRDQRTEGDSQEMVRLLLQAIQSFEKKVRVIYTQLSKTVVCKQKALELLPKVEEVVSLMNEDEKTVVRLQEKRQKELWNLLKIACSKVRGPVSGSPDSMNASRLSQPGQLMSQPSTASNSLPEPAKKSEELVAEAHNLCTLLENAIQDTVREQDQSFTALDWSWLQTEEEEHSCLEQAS
assay_method_text: IKKbeta(IKBBLHY1) Takeda global kinase panel
assay_endpoint: IC50
Numeric answer plus unit only.

Entry under review: CN1C(=O)[C@@H](N2CCc3cn(CC4CCS(=O)(=O)CC4)nc3C2=O)COc2ccccc21 [TP-030n] . Reported IC50?
1000 nM

---

target_of_assay: Mitogen-activated protein kinase kinase kinase 20 (Homo sapiens, UniProt Q9NYL2)
Sequence (Q9NYL2 whole entry): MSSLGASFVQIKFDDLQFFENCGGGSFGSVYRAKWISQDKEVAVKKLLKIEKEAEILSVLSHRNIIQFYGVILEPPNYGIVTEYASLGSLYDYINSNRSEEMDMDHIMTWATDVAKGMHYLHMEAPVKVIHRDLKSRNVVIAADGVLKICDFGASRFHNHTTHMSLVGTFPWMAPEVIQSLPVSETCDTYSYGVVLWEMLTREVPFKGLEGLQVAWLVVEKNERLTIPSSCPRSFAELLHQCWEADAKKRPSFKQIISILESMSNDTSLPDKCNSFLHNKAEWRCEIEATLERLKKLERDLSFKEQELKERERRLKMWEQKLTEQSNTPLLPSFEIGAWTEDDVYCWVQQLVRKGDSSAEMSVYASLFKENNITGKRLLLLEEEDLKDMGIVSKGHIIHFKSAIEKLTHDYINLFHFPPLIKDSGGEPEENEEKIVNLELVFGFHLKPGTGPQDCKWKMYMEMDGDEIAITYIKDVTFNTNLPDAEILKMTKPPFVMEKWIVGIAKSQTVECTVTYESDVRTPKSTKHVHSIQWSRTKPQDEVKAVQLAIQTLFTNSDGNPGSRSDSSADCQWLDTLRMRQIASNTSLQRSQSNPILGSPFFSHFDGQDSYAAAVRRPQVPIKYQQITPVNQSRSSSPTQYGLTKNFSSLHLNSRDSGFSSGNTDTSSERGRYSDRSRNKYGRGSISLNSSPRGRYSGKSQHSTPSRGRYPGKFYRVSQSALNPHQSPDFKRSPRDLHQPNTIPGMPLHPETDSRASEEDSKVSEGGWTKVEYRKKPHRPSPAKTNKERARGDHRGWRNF
assay_method_text: ZAK(ZAK1LGY1) Takeda global kinase panel
assay_endpoint: IC50 (nM)
Provide only the numeric value, understood in nM.

molecule	unit_of_measurement	IC50
CN1C(=O)[C@@H](N2CCc3cn(CC4CCS(=O)(=O)CC4)nc3C2=O)COc2ccccc21 [TP-030n]	nM	1000

Continue with the molecule presented below.
Entry under review: "CN1C(=O)[C@@H](N2CCc3cn(Cc4ccccc4)nc3C2=O)COc2ccccc21" . Reported IC50?
1000

---

target_of_assay: Casein kinase II subunit alpha (Homo sapiens, UniProt P68400)
Sequence (P68400 whole entry): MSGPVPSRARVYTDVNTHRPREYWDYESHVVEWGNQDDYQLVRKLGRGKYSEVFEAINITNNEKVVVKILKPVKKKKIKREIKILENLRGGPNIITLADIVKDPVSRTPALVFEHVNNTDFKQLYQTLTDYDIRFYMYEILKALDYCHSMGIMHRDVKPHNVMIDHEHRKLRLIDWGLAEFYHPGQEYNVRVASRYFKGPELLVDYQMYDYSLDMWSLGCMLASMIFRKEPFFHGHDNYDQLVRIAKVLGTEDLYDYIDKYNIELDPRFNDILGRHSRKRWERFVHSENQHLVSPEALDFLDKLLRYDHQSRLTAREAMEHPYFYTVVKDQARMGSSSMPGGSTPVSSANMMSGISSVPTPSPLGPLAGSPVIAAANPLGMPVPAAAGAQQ
assay_method_text: CK2alpha1(C2A1LGF1) Takeda global kinase panel
assay_endpoint: IC50 (nM)
Provide only the numeric value, understood in nM.

molecule	IC50 / nM
CN1C(=O)[C@@H](N2CCc3cn(CC4CCS(=O)(=O)CC4)nc3C2=O)COc2ccccc21 [TP-030n]	1000

Continue with the molecule presented below.
Entry under review: "CN1C(=O)[C@@H](N2CCc3cn(Cc4ccccc4)nc3C2=O)COc2ccccc21" . Reported IC50?
1000

---

So I've got pIC50 readings for Serine/threonine-protein kinase TBK1 (Homo sapiens, UniProt Q9UHD2), take a look.
Please treat pIC50 as minus the base-10 logarithm of the molar concentration.

molecule	numeric_readout
CN1C(=O)[C@@H](N2CCc3cn(CC4CCS(=O)(=O)CC4)nc3C2=O)COc2ccccc21 [TP-030n]	6.00

Entry under review: "CN1C(=O)[C@@H](N2CCc3cn(Cc4ccccc4)nc3C2=O)COc2ccccc21" . Reported pIC50?
6.00

---

Quick reference: IC50 of the listed items.
target_of_assay: Serine/threonine-protein kinase greatwall (Homo sapiens)
Sequence (Q96GX5 whole entry): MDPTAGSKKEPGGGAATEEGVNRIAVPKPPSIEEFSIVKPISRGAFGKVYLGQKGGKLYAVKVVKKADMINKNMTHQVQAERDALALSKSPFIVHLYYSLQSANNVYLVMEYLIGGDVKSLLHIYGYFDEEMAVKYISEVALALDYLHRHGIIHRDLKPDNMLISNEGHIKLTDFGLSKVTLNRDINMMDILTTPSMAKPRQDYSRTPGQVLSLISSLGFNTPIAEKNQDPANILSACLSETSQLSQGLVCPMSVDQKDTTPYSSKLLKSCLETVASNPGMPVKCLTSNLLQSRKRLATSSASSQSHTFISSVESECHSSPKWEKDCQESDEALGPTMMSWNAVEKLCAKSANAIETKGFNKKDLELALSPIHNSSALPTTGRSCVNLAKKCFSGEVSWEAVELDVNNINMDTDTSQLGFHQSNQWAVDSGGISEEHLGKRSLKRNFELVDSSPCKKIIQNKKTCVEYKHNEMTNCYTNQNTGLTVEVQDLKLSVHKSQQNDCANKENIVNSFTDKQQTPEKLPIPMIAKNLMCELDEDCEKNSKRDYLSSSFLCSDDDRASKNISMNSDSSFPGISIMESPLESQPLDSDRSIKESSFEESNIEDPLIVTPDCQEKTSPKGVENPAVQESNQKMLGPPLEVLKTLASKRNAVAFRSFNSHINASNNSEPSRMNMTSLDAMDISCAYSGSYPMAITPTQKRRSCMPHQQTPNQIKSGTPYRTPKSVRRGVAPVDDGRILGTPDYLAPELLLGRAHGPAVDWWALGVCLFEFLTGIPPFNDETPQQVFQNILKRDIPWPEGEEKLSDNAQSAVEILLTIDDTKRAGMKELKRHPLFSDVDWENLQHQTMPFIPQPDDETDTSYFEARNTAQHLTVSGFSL

molecule	IC50
CN1C(=O)[C@@H](N2CCc3cn(CC4CCS(=O)(=O)CC4)nc3C2=O)COc2ccccc21 [TP-030n]	1000 nM

Continue with the molecule presented below.
Entry under review: "CN1C(=O)[C@@H](N2CCc3cn(Cc4ccccc4)nc3C2=O)COc2ccccc21" . Reported IC50?
1000 nM

Origin of the recorded values: ChEMBL document CHEMBL4507327
